Entry source: the supplement of paper PMC10127200

tested on: HEPG2; assay: Euclidean distance of Cell Painting phenotypic profile (signed KS, 77 features) to DMSO centroid (dimensionless distance); 5 or 10 uM (library dependent); higher = stronger phenotypic change vs DMSO (phenoactivity); details: 48 h
Where a name gives a salt, the structure may show the parent alone.
Here, each record is paired with measured Euclidean distance data.
endpoint.label: Euclidean distance

[
  {
    "molecule": "CC[C@H]1OC(=O)C[C@@H](O)[C@H](C)[C@@H](O[C@@H]2O[C@H](C)[C@@H](O[C@H]3C[C@@](C)(O)[C@@H](O)[C@H](C)O3)[C@H](N(C)C)[C@H]2O)[C@@H](CC=O)C[C@@H](C)C(=O)/C=C/C(C)=C/[C@@H]1CO[C@@H]1O[C@H](C)[C@@H](O)[C@@H](OC)[C@H]1OC",
    "endpoint.label": "Euclidean distance",
    "value": 0.42
  },
  {
    "molecule": "COC(=O)N[C@H](C(=O)N1CCC[C@H]1c1nc(-c2ccc3c(c2)O[C@@H](c2ccccc2)n2c-3cc3cc(-c4c[nH]c([C@@H]5CCCN5C(=O)[C@@H](NC(=O)OC)C(C)C)n4)ccc32)c[nH]1)C(C)C",
    "endpoint.label": "Euclidean distance",
    "value": 1.04
  },
  {
    "molecule": "CCN(CC)CCOc1ccc(C(=C(Cl)c2ccccc2)c2ccccc2)cc1 [Clomifene citrate]",
    "endpoint.label": "Euclidean distance",
    "value": 4.07
  },
  {
    "molecule": "c1cnc2cc3c(cc2n1)[C@@H]1CNC[C@H]3C1 [Varenicline Tartrate]",
    "endpoint.label": "Euclidean distance",
    "value": 0.459
  },
  {
    "molecule": "COc1ccc2cc(CCC(C)=O)ccc2c1",
    "endpoint.label": "Euclidean distance",
    "value": 0.532
  },
  {
    "molecule": "C[C@H](Nc1ncnc2[nH]cnc12)c1cc2ccc(F)cc2nc1-c1ccccn1",
    "endpoint.label": "Euclidean distance",
    "value": 1.01
  },
  {
    "molecule": "Nc1nccc2c1ncn2C1C=C(CO)C(O)C1O (stereo unspecified)",
    "endpoint.label": "Euclidean distance",
    "value": 1.23
  },
  {
    "molecule": "CCc1c(O)cc(O)c(C(=O)c2ccc(OCCN3CCOCC3)c(OC)c2)c1CC(=O)N(CCOC)CCOC",
    "endpoint.label": "Euclidean distance",
    "value": 2.39
  },
  {
    "molecule": "Nc1ccc(O)c(C(=O)O)c1",
    "endpoint.label": "Euclidean distance",
    "value": 0.538
  },
  {
    "molecule": "C=CC(=O)N1CCC[C@@H](n2nc(-c3ccc(Oc4ccccc4)cc3)c3c(N)ncnc32)C1",
    "endpoint.label": "Euclidean distance",
    "value": 1.42
  },
  {
    "molecule": "CN(C)CCC(c1ccccc1)c1ccccn1 (stereo unspecified) [Pheniramine Maleate]",
    "endpoint.label": "Euclidean distance",
    "value": 0.694
  },
  {
    "molecule": "NC(=O)C(c1ccccc1)(c1ccccc1)[C@@H]1CCN(CCc2ccc3c(c2)CCO3)C1",
    "endpoint.label": "Euclidean distance",
    "value": 1.11
  },
  {
    "molecule": "C[C@@H](Oc1ccc2[nH]nc(/C=C/c3cnn(CCO)c3)c2c1)c1c(Cl)cncc1Cl",
    "endpoint.label": "Euclidean distance",
    "value": 3.02
  },
  {
    "molecule": "Oc1c(Cl)cc(Cl)c2cccnc12",
    "endpoint.label": "Euclidean distance",
    "value": 2.06
  },
  {
    "molecule": "CC(O)c1cc(C(=O)N[C@@H](C)Cn2ccc(-c3ccc(C#N)c(Cl)c3)n2)n[nH]1 (stereo partly specified) [Darolutamide (ODM-201)]",
    "endpoint.label": "Euclidean distance",
    "value": 0.543
  },
  {
    "molecule": "NCC(=O)CCC(=O)O [5-Aminolevulinic acid HCl]",
    "endpoint.label": "Euclidean distance",
    "value": 1.61
  }
]
